A collection of molecules and their measured fraction unbound at 6 h, 1 µM
Experiment: Assay for plasma protein binding rate (equilibrium dialysis), mouse plasma
Format: in vitro ADME
Settings: dialysis 6 h at 37 °C, read-out: Mouse (Fu%)
In your answer, state the number alone without any accompanying words.

Below, 5 molecules whose answers are already recorded.
INSERT INTO assay_data (molecule, measured_value) VALUES
  ('COc1ccc2c(c1S(=O)(=O)Nc1noc3cc(Cn4cccn4)nc(OC)c13)OCC2 [Example 9]', 0.0478),
  ('COc1cc2c(cc1S(=O)(=O)Nc1noc3cc(Cn4cccn4)nc(OC)c13)OCC2 [Example 59]', 0.05),
  ('COc1cc2c(cc1S(=O)(=O)Nc1noc3cc(Cn4cccn4)nc(OC)c13)CCCC2 [Example 2]', 0.0065),
  ('COc1ccc2occc2c1S(=O)(=O)Nc1noc2cc(Cn3cccn3)nc(OC)c12 [Example 45]', 0.0145),
  ('COc1cc2c(cc1S(=O)(=O)Nc1noc3cc(Cn4cccn4)nc(OC)c13)CCO2 [Example 60]', 0.0358);

Q: Given the molecule COc1nc(Cn2cccn2)cc2onc(NS(=O)(=O)c3cccc4c3OCO4)c12 [Example 28] , what is its reported fraction unbound at 6 h, 1 µM?
Result: 0.0205

Q: // next record COc1ccc2ccoc2c1S(=O)(=O)Nc1noc2cc(Cn3cccn3)nc(OC)c12 [Example 10]
Result: 0.0512
